Just for reference, patent US4000293A is where these values come from.

Final Concn. of positive chlorine overview
Experiment: positive chlorine concentration before and after 14 day incubation of solutions at pH 7.0, 40° C., Table B
Assay type: physicochemical
Conditions: after 14 day incubation at 40° C., 0.1M phosphate pH 7.0
Property label: Final Concn. of positive chlorine (ppm +Cl)

[[record]]
molecule = "CCC1CN(Cl)C(=O)O1 (centres unmarked) [Example 1E, 3-Chloro-5-ethyl-2-oxazolidinone]"
property_label = "Final Concn. of positive chlorine"
test_result = 15

[[record]]
molecule = "CC1(C)COC(=O)N1Cl [Example 1F, 3-Chloro-4,4-dimethyl-2-oxazolidinone]"
property_label = "Final Concn. of positive chlorine"
test_result = 527

[[record]]
molecule = "O=C1OCCN1Cl [Example 1A, 3-chloro-2-oxazolidinone]"
property_label = "Final Concn. of positive chlorine"
test_result = 30

[[record]]
molecule = "CC1CN(Cl)C(=O)O1 (centres unmarked) [Example 1D, 3-Chloro-5-methyl-2-oxazolidinone]"
property_label = "Final Concn. of positive chlorine"
test_result = 34

[[record]]
molecule = "CC1(C)CN(Cl)C(=O)O1 [Example 1G, 3-Chloro-5,5-dimethyl-2-oxazolidinone]"
property_label = "Final Concn. of positive chlorine"
test_result = 43

[[record]]
molecule = "CC1COC(=O)N1Cl (centres unmarked) [Example 1B, 3-Chloro-4-methyl-2-oxazolidinone]"
property_label = "Final Concn. of positive chlorine"
test_result = 14

[[record]]
molecule = "CC1OC(=O)N(Cl)C1C (centres unmarked) [Example 1C, 3-Chloro-4,5-dimethyl-2-oxazolidinone]"
property_label = "Final Concn. of positive chlorine"
test_result = 51

[[record]]
molecule = "CCC1(C)COC(=O)N1Cl (centres unmarked) [Example 1H]"
property_label = "Final Concn. of positive chlorine"
test_result = 553


---

Assay: hydrolytic stability in 0.1M sodium dihydrogen phosphate pH 7.0 at 40° (first-order kinetics), Table C
Format: physicochemical
Conditions: hydrolysis, first-order, 0.1M phosphate pH 7.0, 40°
Property label: Rate Constant k

[[record]]
compound = "CC1COC(=O)N1Cl (centres unmarked)"
test_result = "0.0633 h⁻¹"

[[record]]
compound = "CC1(C)CN(Cl)C(=O)O1"
test_result = "0.008 h⁻¹"

[[record]]
compound = "CC1OC(=O)N(Cl)C1C (centres unmarked)"
test_result = "0.018 h⁻¹"

[[record]]
compound = "O=C1OCCN1Cl"
test_result = "0.0155 h⁻¹"

[[record]]
compound = "CC1(C)COC(=O)N1Cl"
test_result = "0.00034 h⁻¹"


---

Assay: positive chlorine concentration before and after 14 day incubation of solutions at pH 7.0, 40° C., Table B
Type: physicochemical
Conditions: before incubation, 0.1M phosphate pH 7.0
Property label: Initial Concn. of positive chlorine (ppm +Cl)

[[record]]
compound = "CC1CN(Cl)C(=O)O1 (centres unmarked) [Example 1D, 3-Chloro-5-methyl-2-oxazolidinone]"
property_label = "Initial Concn. of positive chlorine"
test_result = 548

[[record]]
compound = "CC1(C)COC(=O)N1Cl [Example 1F, 3-Chloro-4,4-dimethyl-2-oxazolidinone]"
property_label = "Initial Concn. of positive chlorine"
test_result = 534

[[record]]
compound = "CCC1CN(Cl)C(=O)O1 (centres unmarked) [Example 1E, 3-Chloro-5-ethyl-2-oxazolidinone]"
property_label = "Initial Concn. of positive chlorine"
test_result = 535

[[record]]
compound = "CC1COC(=O)N1Cl (centres unmarked) [Example 1B, 3-Chloro-4-methyl-2-oxazolidinone]"
property_label = "Initial Concn. of positive chlorine"
test_result = 610

[[record]]
compound = "CC1OC(=O)N(Cl)C1C (centres unmarked) [Example 1C, 3-Chloro-4,5-dimethyl-2-oxazolidinone]"
property_label = "Initial Concn. of positive chlorine"
test_result = 490

[[record]]
compound = "CC1(C)CN(Cl)C(=O)O1 [Example 1G, 3-Chloro-5,5-dimethyl-2-oxazolidinone]"
property_label = "Initial Concn. of positive chlorine"
test_result = 473

[[record]]
compound = "O=C1OCCN1Cl [Example 1A, 3-chloro-2-oxazolidinone]"
property_label = "Initial Concn. of positive chlorine"
test_result = 465

[[record]]
compound = "CCC1(C)COC(=O)N1Cl (centres unmarked) [Example 1H]"
property_label = "Initial Concn. of positive chlorine"
test_result = 555

